Values from PubChem BioAssay AID1508600

Assay: Components of the Cytosolic LPS Sensing Pathway: Gene Identification via Genome-wide siRNA Screen
Settings: RAW264.7 macrophages, IL-1a HTRF, actives lie on both sides, screened at 100 nM (by protocol), cells primed 5 h with Pam3CSK4 first
About 3,700 (7%) of roughly 53,000 sequences were called active.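 The calls were made as follows: active = gene knockdowns whose robust z-score for IL-1 alpha signal is at least 2 or at most -2, so actives lie on both sides; inactive = the rest.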 Shown is part of a subset that was picked to be rich in actives.
Outcome codes: active, inactive

# SEQUENCE_DATA, CATEGORY
data = [
    ("GGCCCAACCUUGGAUCUUUTT against Nudt22", "inactive"),
    ("GCAUUCGAAAUGAAGAUAATT against Dnajb1", "inactive"),
    ("GGCCCAUCCUGAAACCAAATT against Wfdc15b", "active"),
    ("GGAUUUCCUUUUAAGACUUTT against Rab3il1", "inactive"),
    ("AUGCUUUGAUCAGUAUGAATT against Vmn1r188", "active"),
    ("CCGGAGUCAGUAUCCAGAATT against Ndufaf4", "inactive"),
    ("GGACAAGACUCUCAGUUCATT against Atpaf1", "inactive"),
    ("GGUGCUGCACAAAUACAUATT against Eef1aknmt", "inactive"),
    ("GGGUAGGUAUCAAAAUAAUTT against 6030452D12Rik", "inactive"),
    ("GCUACUGCACAAAGUUACGTT against Ankrd36", "inactive"),
    ("GCGGUGUGCUGGAUAAUUCTT against Vit", "inactive"),
    ("CCUCAUCAAUCAGCCUAUGTT against Olfr1178", "inactive"),
]
